# Procedure summary: cAMP Responsive Elements (CRE) small molecule antagonists, cell-based qHTS assay: qHTS cell viability counter screen (AID 2060913); also: nearly all actives have a fitted effect of over 40% in size
# Measurement context: CRE-bla HEK293T viability, CellTiter-Glo luminescence, 5 h; series mostly up to 92.4 µM
Results filed as inconclusive are left out. Calls of active or inactive are those of the source. Calls follow the shape of the dose curve; as a rule, active = well fitted cell-killing curve with a large enough effect in the repeat runs; inconclusive = weak or mixed curves, or effect the other way; inactive = flat fitted curve, though single readings scatter.
Endpoint name: viability change, negative = cytotoxic

Recorded results for 5 compounds are shown here.
- Compound: "CCCCCc1ccco1"
  viability change, negative = cytotoxic: "inactive"
- Compound: "CCCO[Si](OCCC)(OCCC)OCCC"
  viability change, negative = cytotoxic: "inactive"
- Compound: "CC(C)(C)c1ccc(OC2CCCCC2O)cc1 (stereo unspecified)"
  viability change, negative = cytotoxic: "inactive"
- Compound: "O=c1c(O)c(-c2ccc(O)cc2O)oc2cc(O)cc(O)c12"
  viability change, negative = cytotoxic: "inactive"
- Compound: "O=C(O)c1ccccc1OP(=O)(O)O"
  viability change, negative = cytotoxic: "inactive"

compound "CNC(=O)c1c(I)c(NC(=O)CCCCC(=O)Nc2c(I)c(C(=O)O)c(I)c(C(=O)NC)c2I)c(I)c(C(=O)O)c1I" , viability change, negative = cytotoxic observed: inactive

compound CC(N)C(=O)OC(C)(C)Cc1ccc(Cl)cc1 (stereo unspecified) , viability change, negative = cytotoxic observed: inactive

compound "CCCCCCCCCCCc1ccccc1" , viability change, negative = cytotoxic observed: inactive

compound "Oc1ccc2c(c1)OCO2" , viability change, negative = cytotoxic observed: inactive

compound "COCCO" , viability change, negative = cytotoxic observed: inactive

compound "O=C(O)CCc1nc2ccccc2[nH]1" , viability change, negative = cytotoxic observed: inactive

====

# Procedure summary: cAMP Responsive Elements (CRE) small molecule antagonists, cell-based qHTS assay: qHTS cell viability counter screen (AID 2060913); also: nearly all actives have a fitted effect of over 40% in size
# Measurement context: CRE-bla HEK293T viability, CellTiter-Glo luminescence, 5 h; series mostly up to 92.4 µM
Inconclusive results are not listed. The source made the active and inactive calls. The call rests on the fitted dose curve; in most records, active means well fitted cell-killing curve with a large enough effect in the repeat runs; inconclusive means weak or mixed curves, or effect the other way; inactive means flat fitted curve, though single readings scatter.
Endpoint name: viability change, negative = cytotoxic

Recorded results for 5 compounds are shown here.
- Smiles input: "c1ccc2c(c1)ccc1cc3c(ccc4ccccc43)cc12"
  viability change, negative = cytotoxic: "inactive"
- Smiles input: "CCCCCCCCCCCCC"
  viability change, negative = cytotoxic: "inactive"
- Smiles input: "CN(C)c1ccc(C=O)cc1"
  viability change, negative = cytotoxic: "inactive"
- Smiles input: "CCc1nccnc1C"
  viability change, negative = cytotoxic: "inactive"
- Smiles input: "OC(Cn1cncn1)(Cn1cncn1)c1ccc(F)cc1F"
  viability change, negative = cytotoxic: "inactive"

compound "COc1nc(N)nc2nc[nH]c12" , viability change, negative = cytotoxic observed: inactive

compound "CC(=O)c1c(C)cc(C(C)(C)C)cc1C" , viability change, negative = cytotoxic observed: inactive

compound "CCOC(=O)C(=O)CCCCCCl" , viability change, negative = cytotoxic observed: inactive

compound "C=CC(=O)OCCC(=O)O" , viability change, negative = cytotoxic observed: inactive

compound "OC[C@H]1O[C@@H]2O[C@H]3[C@H](O)[C@@H](O)[C@@H](O[C@H]4[C@H](O)[C@@H](O)[C@@H](O[C@H]5[C@H](O)[C@@H](O)[C@@H](O[C@H]6[C@H](O)[C@@H](O)[C@@H](O[C@H]7[C@H](O)[C@@H](O)[C@@H](O[C@H]8[C@H](O)[C@@H](O)[C@@H](O[C@H]1[C@H](O)[C@H]2O)O[C@@H]8CO)O[C@@H]7CO)O[C@@H]6CO)O[C@@H]5CO)O[C@@H]4CO)O[C@@H]3CO" , viability change, negative = cytotoxic observed: inactive

compound "NS(=O)(=O)c1cc(C(=O)NN2C[C@H]3[C@H]4CCC(C4)[C@H]3C2)ccc1Cl" , viability change, negative = cytotoxic observed: inactive
